assay: in vivo; settings: mouse, in vivo, iv, 3 mg/kg
propertyMeasured: AUC(0-inf)

So, NC1CCC(Nc2nc(NCCCc3ccccc3)c3ncn(C4CCCC4)c3n2)CC1 (stereo not shown) [MDL 107167] ? Its AUC(0-inf) was 531 ng·h/mL

###

target: cdk4/cyclin D1 (Homo sapiens); experiment: Cyclin-dependent kinase assay, cdk4/cyclin D1; format: biochemical; details: cyclin D1/cdk4; GST-pRb substrate, 10 µM ATP
Sequence (P11802 whole entry): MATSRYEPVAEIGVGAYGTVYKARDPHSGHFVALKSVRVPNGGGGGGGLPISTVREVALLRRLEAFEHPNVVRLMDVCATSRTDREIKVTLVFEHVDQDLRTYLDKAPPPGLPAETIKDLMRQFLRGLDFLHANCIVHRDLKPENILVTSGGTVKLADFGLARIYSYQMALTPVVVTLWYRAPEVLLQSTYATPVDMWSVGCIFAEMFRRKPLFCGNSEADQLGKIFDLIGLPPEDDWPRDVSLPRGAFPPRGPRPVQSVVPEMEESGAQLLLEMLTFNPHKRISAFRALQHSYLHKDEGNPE
Sequence (P24385 whole entry partner): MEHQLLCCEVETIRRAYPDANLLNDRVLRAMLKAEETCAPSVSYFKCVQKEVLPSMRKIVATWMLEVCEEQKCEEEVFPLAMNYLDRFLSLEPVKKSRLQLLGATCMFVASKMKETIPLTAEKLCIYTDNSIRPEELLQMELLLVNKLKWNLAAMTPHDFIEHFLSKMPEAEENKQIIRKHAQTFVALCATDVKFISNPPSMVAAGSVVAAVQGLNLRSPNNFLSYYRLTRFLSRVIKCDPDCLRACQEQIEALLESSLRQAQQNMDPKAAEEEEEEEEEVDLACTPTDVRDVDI
Structures can show the parent of a compound that is named as a salt.
propertyMeasured: pIC50
Entry type: numeric. Quantity: pIC50, the -log10 of concentration in molar units.

# annotated cases, reported pIC50 shown
{"compound": "N[C@H]1CC[C@H](Nc2nc(NC3CCN(S(=O)(=O)c4ccccc4[N+](=O)[O-])CC3)c3ncn(C4CCCC4)c3n2)CC1 [compound 143, dihydrochloride]", "pIC50": 6.81}
{"compound": "N[C@H]1CC[C@H](Nc2nc(NC3CCN(C(=O)C4CC4)CC3)c3ncn(C4CCCC4)c3n2)CC1 [compound 64, dihydrochloride]", "pIC50": 6.23}
{"compound": "Cc1cccc(C(=O)N2CCC(Nc3nc(N[C@H]4CC[C@H](N)CC4)nc4c3ncn4C3CCCC3)CC2)c1 [compound 73]", "pIC50": 6.39}
{"compound": "N[C@H]1CC[C@H](Nc2nc(NC3CCN(C(=O)Nc4cccc(Cl)c4)CC3)c3ncn(C4CCCC4)c3n2)CC1 [compound 165, dihydrochloride]", "pIC50": 6.15}
{"compound": "N[C@H]1CC[C@H](Nc2nc(NC3CCN(S(=O)(=O)c4ccc(I)cc4)CC3)c3ncn(C4CCCC4)c3n2)CC1 [compound 122, dihydrochloride]", "pIC50": 6.23}
{"compound": "Cc1cccc(NC(=O)N2CCC(Nc3nc(N[C@H]4CC[C@H](N)CC4)nc4c3ncn4C3CCCC3)CC2)c1 [compound 210, dihydrochloride]", "pIC50": 7.13}
{"compound": "CCCCCCNC(=O)N1CCC(Nc2nc(N[C@H]3CC[C@H](N)CC3)nc3c2ncn3C2CCCC2)CC1 [compound 185, dihydrochloride]", "pIC50": 6.55}
{"compound": "Cc1ccccc1NC(=O)N1CCC(Nc2nc(N[C@H]3CC[C@H](N)CC3)nc3c2ncn3C2CCCC2)CC1 [compound 208, dihydrochloride]", "pIC50": 7.14}
{"compound": "COc1cc(OC)cc(C(=O)N2CCC(Nc3nc(N[C@H]4CC[C@H](N)CC4)nc4c3ncn4C3CCCC3)CC2)c1 [compound 17]", "pIC50": 6.33}
{"compound": "N[C@H]1CC[C@H](Nc2nc(NC3CCN(C(=O)c4cccc([N+](=O)[O-])c4)CC3)c3ncn(C4CCCC4)c3n2)CC1 [compound 26]", "pIC50": 6.25}

So, C[C@@H](NC(=O)N1CCC(Nc2nc(N[C@H]3CC[C@H](N)CC3)nc3c2ncn3C2CCCC2)CC1)c1ccccc1 [compound 160, dihydrochloride] ? Its pIC50 was 6.45

So, COc1cccc(CC(=O)N2CCC(Nc3nc(N[C@H]4CC[C@H](N)CC4)nc4c3ncn4C3CCCC3)CC2)c1 [compound 38, dihydrochloride] ? Its pIC50 was 6.15

So, CC(C)(C)c1ccc(S(=O)(=O)N2CCC(Nc3nc(N[C@H]4CC[C@H](N)CC4)nc4c3ncn4C3CCCC3)CC2)cc1 [compound 130, dihydrochloride] ? Its pIC50 was 6.80

So, Cl.Cl.N[C@H]1CC[C@H](Nc2nc(NC3CCN(C(=O)Oc4ccc(F)cc4)CC3)c3ncn(C4CCCC4)c3n2)CC1 [compound 87, dihydrochloride] ? Its pIC50 was 7.57

So, N#Cc1cccc(NC(=O)N2CCC(Nc3nc(N[C@H]4CC[C@H](N)CC4)nc4c3ncn4C3CCCC3)CC2)c1 [compound 194, dihydrochloride] ? Its pIC50 was 7.06

So, C=CCOC(=O)N1CCC(Nc2nc(N[C@H]3CC[C@H](N)CC3)nc3c2ncn3C2CCCC2)CC1 [compound 95, dihydrochloride] ? Its pIC50 was 6.28

So, CCOC(=O)c1ccc(NC(=O)N2CCC(Nc3nc(N[C@H]4CC[C@H](N)CC4)nc4c3ncn4C3CCCC3)CC2)cc1.Cl.Cl [compound 154, dihydrochloride] ? Its pIC50 was 6.55

This collection of values is drawn from patent EP1377579B1.
